- experimental.target: T1, HLA-DR8w2 (DRB1*0802) (human)
- T1 chain 1: not shown
- T1 chain 2: not shown
Classify on binding affinity ratio (IC50 of standard peptide / IC50 of test peptide) using bin 1: < 0.0003; bin 2: ≥ 0.0003 and < 0.002; bin 3: ≥ 0.002

These recorded examples may help you get a feel for the data.
{"binder": "MKILSVFFLALFFII (modifications not checked) [… (Pf EXP 1)]", "classification": "bin 3"}
{"binder": "VVILTDGIPDSIQDS (modifications not checked) [… (Pf SSP2 157)]", "classification": "bin 1"}
{"binder": "IGPFMKAVCVEVEKT (modifications not checked) [… (Pf SSP2 227)]", "classification": "bin 1"}
{"binder": "RHPFKIGSSDPADNA (modifications not checked) [… (Pf EXP 107)]", "classification": "bin 3"}
{"binder": "CVEVEKTASCGVWDE (modifications not checked) [… (Pf SSP2 235)]", "classification": "bin 2"}

Quick check: band for LIDVHDLISDMIKKE (modifications not checked) [… (Pf EXP 47)]
bin 3

Which category fits this record: AGGIAGGLALLACAG (modifications not checked) [… (Pf SSP2 513)]
bin 2

Hello team, could you let me know which band the following binder falls into: ANQLVVILTDGIPDS (modifications not checked) [… (Pf SSP2 153)]
bin 1

Field: class (binding affinity ratio (IC50 of standard peptide / IC50 of test peptide)) — entry: AVPLAMKLIQQLNLN (modifications not checked) [… (Pf SSP2 68)]
bin 3
